// data source = patent US20260258115A1

biological target: RSV postfusion F (postF, F deltaFP) (Respiratory syncytial virus); experiment: BLI, IgG on sensor, 100 nM antigen
In this section, each of the binders is paired with its reported Kd.
State the answer as a number, implicitly in pM.

Reference set, count: 6
INSERT INTO measurements (binder, data_value) VALUES
  ('ADI-41235 (antibody, V domains shown) VH: QVQLQQWGAGLLKPSETLSLTCGVYGESFSGHYWSWIRQPPGKGLEWMGEIHHSGTTNYNPSLKSRVTISVDTSKNQFSLKLNSVTAADTAVYYCARNPAEDILTGYSPPFHYYYMDVWGKGTTVTVSS VL: QSVLTQPPSVSGAPGQRVTISCTGSSSNIGAGYDVHWYQQIPGTAPKLLIHSNNNRPSGVPDRFSGSKSGTSASLAITGLQAEDEADYYCQSYDSSLSVVFGGGTKLTVL', 3240),
  ('ADI-41308 (antibody, V domains shown) VH: EVQLVESGPGLVKPSQTLSLTCAISGDSVSSNSAAWNWIRQSPSRGLERMGRTYYRSKWYDDYAVSVKSRIIINPDTSKNQFSLQLNSVTPEDTAVYYCARGISTFGGVIYALEIWGQGTMVTVSS VL: SYVLTQPASVSGSPGQSITISCTGLTSDVGGYNFVSWYQQHPGKAPKLIIYDVSHRPSGVSNRFSGSESGNTASLTISGLQAEDEAHYYCSSYTRTSIVVFGGGTKLTVL', 519),
  ('ADI-41252 (antibody, V domains shown) VH: EVQLVQSGAEVKKPGESLKISCMGSGYNFPNYWIGWVRQMSGKGLEWMGIIYPDDSDTTYSPSFQGQVIFSADKSISTAYLQWSSLKASDTAMYFCVRLDKTTQIDFWGQGTLVTVSS VL: EIVLTQSPSSLSASVGDRVTITCQASQDISNYLNWYQQKPGKAPKLLIYDVSNLETGVPSRFSGSGSGTDFTFTISSLQPEDIATYYCQQHDNLPLTFGQGTRLEIK', 1000),
  ('ADI-41282 (antibody, V domains shown) VH: QVQLVQSGGGVVQPGRSLRLSCAASGFMFTIYSMHWVRQAPGKGLEWVAVISNDGVNKYYSDSVKGRFTISRDNSKNTLYLQMNNLRAEDTAVYYCASDIVVLVTATDYWGQGTLVTVSS VL: ETTLTQSPVTLSLSPGERATLSCRTSQSFSSPLLAWYQQKPGQAPRLLIYGASNRATGIPDRFSGSGSGTDFTLTISRLEPVDFAVYYCQQYGSSPYTFGQGTKLEIK', 1250),
  ('ADI-41311 (antibody, V domains shown) VH: QVTLKQSGPALVKPTQTLTLTCTFSGFSLSTKRMGVSWIRQPPGKALEWLARIDWDDDKYYSTSLRTRLTISKDTSKNQVVLTMTDMDPVDTATYYCARIQPYTSGGYYSYYFDYWGQGTLVTVSS VL: DIQVTQSPSSLSASIGDRVTITCRASQTIASYLNWYQQKPGKAPKLLIYIASSLQSGVPSRFSGSGSGTDFTLTISTLQPEDFATYYCQQSYGTPWTFGQGTKVEIK', 524),
  ('ADI-41280 (antibody, V domains shown) VH: QVQLVESGPGLVKPSETLALTCTVSGGSLSTYYWSWIRQPPGKGLEWIGYIYYSGTTYYNPSLKSRVTISEDRSKNQFSLKLTSVTAADTAVYYCARHGPKTEFWSAQYYLELWGRGTLVTVSS VL: EIVLTQSPGTLSLSPGERATLSCRASQSVSSDYLAWYQQKPGQAPSLLIYGVSTRATGIPDRISGSGSGTDFTLTISRLEPEDFAVYYCHQYGTSPWTFGQGTKVEIK', 483);

Quick note, Kd for ADI-41293 (antibody, V domains shown) VH: QVQLQQSGPGLAKPSQTLSLTCTVSGGPISGVDYYWSWIRQPPGKGLEWIGYIYYSGSTYYNPSLKSRVTISVDTSKKQFSLKMSSVTAADTAVYYCARDVGATPYYYYGMDVWGQGTTVTVSS VL: DIVLTQSPDTLSLSPGERATLSCRASQSVRSNYLAWYQHKPGQAPRLLIYGASSRVAGIPDRFSGSGSGTDFTLTISRLEPEDFAVYYCQQYGSSPPSVTFGGGTKVEIK landed at 411

Quick note, Kd for ADI-41244 (antibody, V domains shown) VH: QVTLKESGGGLIQPGGSLRLSCAVSGFTVSSKYMSWVRQAPGKGLEWVSVIYGGGSTYYTDSVKGRFTISRDNSNNTLYLQMNSLRAEDTAIYYCAREARSYNYDYVGNDAFDIWGQGTTVTVSS VL: DIVLTQTPDSLAVSLGERATINCKSSQSVLNNFNNKNYLAWYQQKPGQPPKLLIYWASTRESGVPDRFSGSGSGTDFTLTITSLQAEDVAIYYCQQYYRTPPYTFGQGTKVDIK landed at 843

Quick note, Kd for ADI-41309 (antibody, V domains shown) VH: EVQLLESGPGLVKPSQTLSLTCTVSGGSISSGDYYWSWVRQPPGKGLEWIGNIYHSGSTYYKPSLKSRVSISLDTSKNQFSLKLSSVTAADTAIYYCARDGGENYVWGTFRFLDVWGQGTTVTVSS VL: DIRLTQSPGTLSLSPGERATLSCRASQSVSSSYLAWYQQKPGQAPRLLIYGVSSRATGIPDRFSGSGSGTDFTLTINRLEPEDFALYHCQQYGSSPHTFGQGTKVEIK landed at 1360

Quick note, Kd for ADI-41307 (antibody, V domains shown) VH: QVQLVESGGGLVKPGGSLRLSCAASGFPLSPYALNWVRQAPGKGLEWVSSITSSSAYIYYADSVKGRFTVSRDNPTNSLYLQMNSLRAEDTAVYYCARTIPQHYYDNNGDYYNYGMDVWGQGTTVTVSS VL: DIVLTQSPATLSVSPGQRITLSCRASQTVRSNLAWYQQKPGQPPRLLIYGASTRATGVPARFTGSGSGTEFTLTITSLQSDDFAVYYCHQYNDRPLTFGPGTKVEIK landed at 830
